Source listed as PubChem BioAssay (NCI).

growth by entry:
test system: COLO 205 colon; experiment: NCI-60 one-dose screen, 48 h (100 = growth as untreated, 0 = no growth, -100 = all killed); conditions: 10 µM unless noted
The panel holds about 83,000 compounds, 20% with a hit somewhere; the sample as a whole holds those more often.
// return numeric value only (unit: %, not printed)

CCN(CC)Cc1cc(Nc2c3ccc(Cl)cc3nc3c(C)cccc23)ccc1O	-92.4
C=C1CC2(OC1=O)C(=O)Nc1ccccc12 (centres undefined)	10.3
O=C1c2cccnc2C(=O)c2c1c(C(=O)OCCN1CCOCC1)c1ccccn21	-53.5
O=C1Nc2ccccc2C12CC(c1ccccc1)=NN2 (centres undefined)	31.4
C=C1CC2(OC1=O)C(=O)N(CCCCCCCCCCCCN1C(=O)C3(CC(=C)C(=O)O3)c3ccccc31)c1ccccc12 (centres undefined)	82.6

Q: What growth value was documented for this compound, c1c2c(cc3c1OCO3)Cc1cc3c(cc1Cc1cc4c(cc1C2)OCO4)OCO3 ?
Ans: 114

Q: Same lookup for CC(C)(C)n1cc(-c2ccnc(NCCNS(=O)(=O)c3ccccc3)c2)c(-c2cccc(O)c2)n1 , please.
Ans: 6.61

----------
system: SF-539 CNS; experiment: NCI-60 one-dose screen, 48 h; details: 10 µM unless noted
This is part of a sample that, as a whole, favours compounds with a hit. Of some 83,000 tested, about 20% had one in any assay. Calls of active or inactive are those of the source. How the source made its calls: active means growth percent below 10; inactive means the rest.
Select the correct class. Options are true (1) for active, false (0) for inactive and nothing else.

O=C1Nc2ccccc2C12CC(c1ccc(Cl)cc1)=NN2 (centres undefined)	false (0)

Q: What call does the record list for CN1CCN(c2ccc3nc(-c4ccc5nc(-c6ccc(OCCC(C)(C)C)cc6)[nH]c5c4)[nH]c3c2)CC1 ?
Ans: true (1)

Q: Likewise for O=[N+]([O-])c1cccc(-c2nc3sccn3c2-c2ccnc(NCCCNS(=O)(=O)c3ccc(Br)cc3)n2)c1 ?
Ans: false (0)

Q: Also need NS(=O)(=O)c1ccc(Nc2nc3n[nH]c(Nc4ccccc4)c3c(=O)[nH]2)cc1 , thanks.
Ans: false (0)

Q: What do we get for COc1ccc(-c2cc(-c3cccnc3)nc3sc4c(=O)n(-c5ccc(C)cc5)cnc4c23)cc1OC ?
Ans: false (0)

Q: CN(C)c1ccc(/C=C\C2=[N+](C)c3ccccc3C2(C)C)cc1 , same question.
Ans: false (0)

Q: Param item: Nc1c(C(=O)Nc2ccccc2Cl)sc2nc3c(cc12)CCCCCC3
Ans: false (0)

Q: // query: C=C1C(=O)O[C@H]2[C@H]1CC/C(Cn1cc(Cn3ccc4cc(Cl)ccc43)nn1)=C\CC[C@@]1(C)O[C@@H]21
Ans: true (1)

Q: What about this compound? CCOC(=O)c1cnc2cc(Cl)c(F)cc2c1Nc1cccc(NS(C)(=O)=O)c1
Ans: false (0)

----------
Items are presented alongside their recorded growth.
system: HCC-2998 colon; experiment: NCI-60 one-dose screen, 48 h (100 = growth as untreated, 0 = no growth, -100 = all killed); conditions: 10 µM unless noted
Compounds without any hit were thinned out: in the full panel of roughly 83,000, 20% have a hit.
Quick note: give the figure in %, leave out the unit.

O=C1C=CC(=O)c2c1nc1n2CCCC1	57.6
O=[N+]([O-])c1c(F)cccc1Nc1cccc(F)c1	102
CSc1ccc(N=C=C(c2ccccc2)c2ccccc2)cc1	100
COc1cc(/C=C2\CN(C(=O)CCN3CCC(=NO)CC3)C/C(=C\c3cc(OC)c(OC)c(OC)c3)C2=O)cc(OC)c1OC	-79.8
CCN(CC)CCCC(C)NCCCNc1cccc2cccnc12 (stereo unspecified)	82.5
O=C(O)C(O)C(O)C(=O)O.[NH-]C1CCCCC1[NH-].[Pt+2] (stereo unspecified)	104
O=C(C[C@@H](C(=O)NCc1cccc(C(F)(F)F)c1)N1C(=O)[C@@H](N2C(=O)OC[C@@H]2c2ccccc2)[C@H]1/C=C/c1ccccc1)NC1CCN(Cc2ccccc2)CC1	59.9
C=CC[N+]1(CC)CCN=C1CCCCCCCCCCCCCCCCC (stereo unspecified)	-73.5

Q: Reported growth for C#Cc1nc(Nc2cc(C)[nH]n2)c2ccccc2n1 : what is it?
Ans: -91

Q: Similarly, COc1ccc(C(=O)c2sc3nc4c(cc3c2N)CCCC4)cc1OC ?
Ans: 109

Q: Also O=c1c(/C=C/c2ccco2)nnc(SCCN2CCOCC2)n1/N=C/c1ccc([N+](=O)[O-])cc1 ?
Ans: 93.1
